# procedure_summary: basal RPMI8226 viability, no added stimulus, profiling panel, cell-based, calcein-AM fluorescence, 48 h, PK04 Diversity Set (AID 1166);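 note: cells grown under basal conditions without added stimulus; test concentration not given here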
# measurement_context: RPMI8226 myeloma viability, higher = more signal
Please assign false (0) whenever z-score is at or above -0.8, and true (1) whenever it is below.

| compound | category |
| --- | --- |
| COc1ccc([Si](C)(C)[C@@H]2[C@@H](CC(=O)N(CCO)Cc3ccccc3)O[C@]3(C(=O)N(Cc4cccc(N5C(=O)c6cccc7cccc5c67)c4)c4ccccc43)[C@H]2C)cc1 | true (1) |
| [N-]=[N+]=Nc1ccccc1[C@@H]1OC(c2ccc(OCCCO)cc2)=N[C@]1(Cc1ccccc1)C(=O)NCC(O)CO (stereo not given in full) | true (1) |
| COCCOC(=O)N1C(=O)[C@@]2(c3cc(C#CCC(C(=O)OC)C(=O)OC)ccc31)[C@H](C(=O)N1CCc3cc(OC)c(OC)cc3C1)[C@H]1C(=O)O[C@H](c3ccccc3)[C@H](c3ccccc3)N1[C@@H]2c1ccc(OCCO)cc1 | false (0) |
| COCCOC(=O)N1C(=O)[C@@]2(c3cc(C#CC4=CCCCC4)ccc31)[C@H](c1ccc(OCCO)cc1)N1[C@H](c3ccccc3)[C@H](c3ccccc3)OC(=O)[C@H]1[C@@H]2C(=O)N1CCN(c2ncccn2)CC1 | false (0) |
| COC(=O)c1cn(C[C@@H](Cc2ccccc2)NC(=O)N[C@H](CO)CCc2oc(C(C)=O)c(C(=O)OC)c2C(=O)OC)nn1 | false (0) |

---

# procedure_summary: A549 cell viability effects, profiling panel, calcein-AM fluorescence, 48 h, basal (AID 1162); note: test concentration not given here
# measurement_context: higher = more signal
# reported z-score; entries follow
property_measured: z-score

| input_smiles | result_number |
| --- | --- |
| CCCCCCc1nc(C2CC2)cc2c1[Si](C(C)C)(C(C)C)O[C@H]2c1ccccc1 | -0.036 |
| C[C@]1(C(=O)NC2CC2)c2ccccc2C(=O)N(Cc2ccccc2)[C@H]1c1ccc(CO)cc1 | 0.395 |
| COC(=O)[C@@]1(Cc2ccc(F)cc2)[C@H]2c3cc(C(=O)N(C)C)n(Cc4cc(F)cc5c4OCOC5)c3C[C@H]2CN1C(=O)c1ccccc1 | 0.217 |
| O=C1C=C(c2ccccc2)C(=O)c2ccc([C@H]3Oc4ccccc4S(=O)(=O)N4CCC[C@@H]34)cc21 | -0.309 |

---

# target_desc: Calmodulin-1 (Homo sapiens)
# procedure_summary: calcium-bound CALM1 binders on microarrays, profiling panel, artefact control for SMM control-protein annotation, biochemical, small-molecule microarray, Cy5-labelled CALM1, plus calcium (AID 1112);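 note: score merges spot fluorescence with signal to noise from triplicate slides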
# measurement_context: Cy5-CALM1 binding fluorescence, higher = more signal

| molecule | composite z-score |
| --- | --- |
| COCCOC(=O)N1C(=O)[C@@]2(c3cc(C#CC4=CCCCC4)ccc31)[C@H](c1ccc(OCCO)cc1)N1[C@H](c3ccccc3)[C@H](c3ccccc3)OC(=O)[C@H]1[C@@H]2C(=O)NC[C@H](O)c1ccccc1 | 0.458 |
| O=C1OCCC=C[C@H]2OC34C=CCN(Cn5nnc6ccccc65)C(=O)[C@H]3N(CCCCCCO)C(=O)[C@@H]4C12 (stereo partly drawn) | 0.646 |
| CN(C)CCCNC(=O)[C@@H]1c2ccccc2C(=O)N(Cc2ccccc2Cl)[C@H]1c1ccc(CO)cc1 | -0.464 |
